// provenance: paper PMC6891286

assay: metabolite identification in mouse liver microsomes

>  <MOLECULE>
Brc1ccc2nccc(Nc3cccc4c3OCO4)c2c1 [Compound 9]

>  <Primary Metabolite Mass>
Parent + O

$$$$
>  <MOLECULE>
COc1cc(Nc2ccnc3ccc(C(F)(F)F)cc23)cc(OC)c1OC [Compound 13]

>  <Primary Metabolite Mass>
Parent + O

$$$$
>  <MOLECULE>
Fc1ccc(F)c(Nc2ccnc3ccc(Br)cc23)c1 [Compound 10]

>  <Primary Metabolite Mass>
Parent + O

$$$$

###

assay: mouse liver microsome metabolic stability; details: mouse liver microsomes; normalization with respect to internal control (propranolol)

>  <GIVEN_SMILES>
Brc1ccc2nccc(Nc3ccc4[nH]ncc4c3)c2c1

>  <T1/2 Ratio>
0.92

$$$$
>  <GIVEN_SMILES>
Brc1ccc2nccc(Nc3cccc4sccc34)c2c1

>  <T1/2 Ratio>
0.50

$$$$
>  <GIVEN_SMILES>
Brc1ccc2nccc(Nc3cccc4c3OCO4)c2c1

>  <T1/2 Ratio>
1.9

$$$$
>  <GIVEN_SMILES>
Cn1ncc2c(Nc3ccnc4ccc(Br)cc34)cccc21

>  <T1/2 Ratio>
0.10

$$$$
>  <GIVEN_SMILES>
O=c1[nH]c2ccc(Nc3ccnc4ccc(Br)cc34)cc2o1

>  <T1/2 Ratio>
6.9

$$$$

###

test: mouse liver microsome metabolic stability; details: mouse, mouse liver microsomes, T1/2 (min) (−) ABT, (−) ABT; mean average, n = 2
Below: a set of entries, each annotated with reported half-life.
QUANTITY_MEASURED: half-life (min)

>  <COMPOUND>
COc1cc2nccc(Nc3cc(OC)c(OC)c(OC)c3)c2cc1OC [Compound 8]

>  <VALUE_REPORTED>
18

$$$$
>  <COMPOUND>
Fc1ccc2c(c1Nc1ccnc3ccc(Br)cc13)OCO2 [Compound 14]

>  <VALUE_REPORTED>
0.74

$$$$
>  <COMPOUND>
Brc1ccc2nccc(Nc3ccc4cn[nH]c4c3)c2c1 [Compound 35]

>  <VALUE_REPORTED>
46

$$$$
>  <COMPOUND>
Brc1ccc2nccc(Nc3cccc4c3OCO4)c2c1 [Compound 9]

>  <VALUE_REPORTED>
0.74

$$$$
>  <COMPOUND>
COc1cc(Nc2ccnc3ccc(Br)cc23)cc(OC)c1OC [Compound 1]

>  <VALUE_REPORTED>
5.7

$$$$

###

experiment: mouse liver microsome metabolic stability; details: mouse liver microsomes; normalization with respect to internal control (propranolol)
Threshold 0.6: T1/2 Ratio strictly smaller gives fulfilled, otherwise not fulfilled.

>  <GIVEN_SMILES>
COc1cc2nccc(Nc3cc(OC)c(OC)c(OC)c3)c2cc1OC

>  <ASSIGNED_CATEGORY>
not fulfilled

$$$$
>  <GIVEN_SMILES>
Brc1ccc2nccc(Nc3cccc4cnoc34)c2c1

>  <ASSIGNED_CATEGORY>
not fulfilled

$$$$
>  <GIVEN_SMILES>
Fc1ccc(Nc2ccnc3ccc(Br)cc23)c(F)c1

>  <ASSIGNED_CATEGORY>
fulfilled

$$$$
>  <GIVEN_SMILES>
O=S1(=O)Cc2ccc(Nc3ccnc4ccc(Br)cc34)cc2C1

>  <ASSIGNED_CATEGORY>
not fulfilled

$$$$
>  <GIVEN_SMILES>
COc1cccc(Nc2ccnc3ccc(Br)cc23)c1OC

>  <ASSIGNED_CATEGORY>
fulfilled

$$$$
